# experiment-notes: solvent given as SMILES
# condition-summary: in CS(C)=O
assay-metric: emission maximum (nm)
Answer format: numeric, nm implied, no suffix.

compound | unit-abbreviation | emission maximum
CN(C)c1ccc(/C=C/c2nc3c4ccccc4c4ccccc4c3[nH]2)cc1 | nm | 480
CN(C)CCNc1ccc([N+](=O)[O-])cc1[N+](=O)[O-] | nm | 417
N#Cc1cccc2cc[nH]c12 | nm | 391

Exercise: Entry CN1c2ccccc2C(O)(c2ccccc2)c2cc([N+](=O)[O-])ccc21 (stereo unspecified) : reported emission maximum = ?
Key: 566.8

Exercise: Give its emission maximum value. Item: Cc1cc2c(cc1C)NC(=O)CC(=O)N2
Key: 349

Exercise: What value of emission maximum has been recorded for this entry: C(=C\c1cnc2ccccc2n1)/c1ccc(N(c2ccccc2)c2ccccc2)cc1
Key: 598

Exercise: Entry c1ccc(-c2nc(-c3ccc(-c4nc(-c5ccccc5)c(-c5ccccc5)[nH]4)cc3)[nH]c2-c2ccccc2)cc1 has what emission maximum?
Key: 410

Exercise: If you can, please state the reported emission maximum value of CCCCN1c2ccccc2Sc2cc(/C=C/C3=Nc4ccc5ccccc5c4C3(C)C)ccc21 .
Key: 612

Exercise: Look at this compound and give its reported emission maximum. C[n+]1ccnc(/C=C/c2ccc(N(c3ccccc3)c3ccc(/C=C/c4c[n+](C)ccn4)cc3)cc2)c1
Key: 530

Exercise: emission maximum for Cc1ccc(C2C3=C(CCCC3=O)Nc3c2c(=O)oc2ccccc32)cc1 (stereo unspecified) ?
Key: 441

Exercise: Find the recorded emission maximum belonging to CN(C)c1ccc(C#Cc2ccccc2)cc1 and report it.
Key: 423.5

Exercise: Requested read-out: emission maximum. Entry: CN(C)C(=O)c1ccc(-c2nc3ccc(N(C)C)cc3s2)cc1
Key: 534

Exercise: # lookup: emission maximum of N#Cc1c(/C=C/c2ccc(N(c3ccccc3)c3ccccc3)cc2)cc(-c2ccccc2)cc1N1CCCCC1
Key: 520

Exercise: Query (compound): CCN(CC)c1ccc2cc(/C=C/C(=C(C#N)C#N)c3ccc4c(c3)c3ccccc3n4CC)c(=O)oc2c1 ; field requested: emission maximum
Key: 638

Exercise: So what's the measured emission maximum for this one? CCNc1cc2oc(=O)c3c(=O)oc4ccccc4c3c2cc1C
Key: 552

Exercise: Suppose we examine the compound COc1ccc2cc(-c3ccc(C)cc3)c(=O)oc2c1 ; what emission maximum value has been reported?
Key: 431

Exercise: I am curious: what emission maximum value has been reported for C[n+]1ccc(/C=C/c2ccc([O-])cc2)cc1 ?
Key: 608

Exercise: # query: emission maximum of entry Oc1ccc2ccccc2c1C1Nc2cccc3cccc(c23)N1
Key: 528

Exercise: What value of emission maximum has been recorded for this entry: Cc1cc(C#Cc2ccccc2)c2ccc3c(C#Cc4ccccc4)cc(C#Cc4ccccc4)c4ccc1c2c43
Key: 461

Exercise: Requested field: emission maximum. Item: CN(C)c1ccc(/C=C/c2cc[n+](CCCCCCCCCCCC[n+]3ccc(/C=C/c4ccc(N(C)C)cc4)cc3)cc2)cc1
Key: 607

Exercise: Given the entry Clc1ccccc1-c1nc2sc3ccccc3c2s1 , report its measured emission maximum.
Key: 412

----------
# experiment-notes: solvent given as SMILES
# condition-summary: in ClC(Cl)Cl
assay-metric: emission maximum (nm)
Give the quantity in nm, number only.

The following compounds have reported results that may help.
compound | unit-abbreviation | emission maximum
CN(C)c1ccc(/C=C/c2nc3c4ccccc4c4ccccc4c3[nH]2)cc1 | nm | 467
CCN(CC)c1ccc2cc(-c3cn4cc5ccccc5cc4n3)c(=O)oc2c1 | nm | 460
CCCCC1(c2ccc(OC)cc2)Nc2ccccc2N=C1c1ccc(OC)cc1 (stereo not given) | nm | 507
c1ccc(N(c2ccccc2)c2ccc(-c3ccc(-c4ccc(-c5ccc(-c6ccc(N(c7ccccc7)c7ccccc7)cc6)s5)c5nsnc45)s3)cc2)cc1 | nm | 690
CC1=CC(C)=[N+]2C1=C(c1ccc(I)cc1)c1c(C)cc(C)n1[B-]21Oc2ccc3ccccc3c2-c2c(ccc3ccccc23)O1 | nm | 516.4
COC(=O)c1cc(=O)n(C)c2cc(-c3cc4c5c(c3)CCCN5CCC4)sc12 | nm | 580
FC(F)(F)c1ccc2oc3nc4oc5ccc(N(c6ccccc6)c6ccccc6)cc5c4cc3c2c1 | nm | 487
CNc1ccc(/C=C/C#N)cc1 | nm | 404
Cc1ccc(C(=O)/C=C/c2ccc(N(C)C)cc2)cc1 | nm | 508
Cc1nc2c(ccc3c2sc(/C=C/C=C/c2ccc(N(C)C)cc2)[n+]3C)s1 | nm | 696

Proceed to the following item.
Exercise: Name the reported emission maximum value associated with the compound CCCCn1cc(/C=C/c2cc(=O)oc3cc(C)ccc23)c2ccccc21
Key: 474

meta.source: the Deep4Chem optical property database
